- Study system: human A2AAR (Homo sapiens)
- Construct: expressed in transfected cells
- Sequence (P29274 whole entry): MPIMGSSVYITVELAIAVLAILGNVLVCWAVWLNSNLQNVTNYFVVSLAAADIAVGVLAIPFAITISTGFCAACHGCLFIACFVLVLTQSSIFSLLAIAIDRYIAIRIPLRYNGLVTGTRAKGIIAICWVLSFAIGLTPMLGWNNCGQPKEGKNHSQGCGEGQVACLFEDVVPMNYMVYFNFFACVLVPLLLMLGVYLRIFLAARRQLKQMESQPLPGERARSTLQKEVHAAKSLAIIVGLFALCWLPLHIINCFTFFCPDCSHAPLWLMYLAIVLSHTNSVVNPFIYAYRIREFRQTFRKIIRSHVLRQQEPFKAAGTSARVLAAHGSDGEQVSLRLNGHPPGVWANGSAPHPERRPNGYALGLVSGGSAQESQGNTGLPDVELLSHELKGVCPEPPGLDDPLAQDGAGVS
- Experimental details: Radioligand binding ([3H]CGS21680), membranes of HEK293 cells expressing hA2AAR
- Settings: percent inhibition at 10 µM compound, HEK293 cell membranes, [3H]CGS21680, read-out: A2A % Inhibition
Readout type: inhibition at 10 µM (%)

> print(dat)
                                 smiles.str         readout.type  result.units  obs.value
1  O=C(Nc1nc(-c2ccccn2)cs1)c1cc2c(F)cccc2[nH]1  inhibition at 10 µM             %         37
2    CN(C(=O)Cc1csc(NC(=O)C2CC2)n1)c1ccccc1  inhibition at 10 µM             %         36

A = CCCn1nc(C(=O)Nc2nc(-c3ccccn3)cs2)ccc1=O
B = Nc1nc(COC(=O)c2cc3cc(F)ccc3[nH]2)nc2ccccc12
C = O=C(Nc1nc(-c2ccccn2)cs1)c1cccc(-n2cnnn2)c1
Arrange items by their inhibition at 10 µM values in increasing order. Enter labels, ranked according to the request. B, C, A
(B: 5%, C: 11%, A: 35%)

* * *

- Study system: human A1AR (Homo sapiens, UniProt P30542)
- Construct: expressed in transfected cells
- Sequence (P30542 1-326): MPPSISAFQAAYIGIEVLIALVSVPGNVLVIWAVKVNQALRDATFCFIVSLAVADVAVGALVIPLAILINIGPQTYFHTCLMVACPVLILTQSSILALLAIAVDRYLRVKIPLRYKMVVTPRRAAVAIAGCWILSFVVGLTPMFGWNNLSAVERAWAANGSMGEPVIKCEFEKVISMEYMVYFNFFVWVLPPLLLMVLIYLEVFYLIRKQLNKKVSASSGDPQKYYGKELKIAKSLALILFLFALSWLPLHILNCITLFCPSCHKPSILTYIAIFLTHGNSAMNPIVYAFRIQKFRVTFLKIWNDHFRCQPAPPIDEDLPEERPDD
- Experimental details: Radioligand binding ([3H]DPCPX), membranes of CHO cells expressing hA1AR
- Settings: percent inhibition at 10 µM compound; hA1AR, CHO cell membranes, [3H]DPCPX; read-out: A1 % Inhibition
Readout type: inhibition at 10 µM (%)

> print(dat)
                                 smiles.str  obs.value
1  Nc1nc(COC(=O)c2cc3cc(F)ccc3[nH]2)nc2ccccc12         20

A = COc1ccc(OCC(=O)Nc2nc(-c3ccccn3)cs2)cc1
B = N#Cc1cccc(C(=O)Nc2nc(-c3ccccn3)cs2)c1
C = Cc1ccccc1Nc1nc(N)nc(COc2ccccc2C#N)n1
D = Cc1cccc2c(=O)[nH]c(CSc3n[nH]c(C(C)C)n3)nc12
Arrange items by their inhibition at 10 µM values in increasing order. Enter labels, ranked according to the request. C, D, A, B
(C: 2%, D: 19%, A: 28%, B: 45%)

* * *

- Study system: human A1AR (Homo sapiens)
- Construct: expressed in transfected cells
- Experimental details: Radioligand binding ([3H]DPCPX), membranes of CHO cells expressing hA1AR
- Settings: percent inhibition at 10 µM compound; hA1AR, CHO cell membranes, [3H]DPCPX; read-out: A1 % Inhibition
Readout type: inhibition at 10 µM (%)

> print(dat)
                                   compound  obs.value
1  Nc1nc(Cn2nnc(-c3ccccc3)n2)nc(Nc2ccccc2)n1 [Compound 24]         33
2  CN(C(=O)Cc1csc(NC(=O)C2CC2)n1)c1ccccc1 [Compound 16]         13

I = COc1cccc(/C=C/C(=O)Nc2nc(-c3ccccn3)cs2)c1 [Compound 13]
II = CCN(Cc1nc2ccccc2c(=O)[nH]1)C(=O)c1cc(C2CC2)[nH]n1 [Compound 22]
III = CC(NC(=O)c1ccco1)C(=O)Nc1nc(-c2ccccn2)cs1 (stereo not shown) [Compound 7]
# sort list by recorded inhibition at 10 µM, greatest to least Enter labels, ranked according to the request. II, III, I
(II: 36%, III: 17%, I: 10%)

P = CCCn1nc(C(=O)Nc2nc(-c3ccccn3)cs2)ccc1=O [Compound 11]
Q = O=C(Nc1nc(-c2ccccn2)cs1)c1cc2c(F)cccc2[nH]1 [Compound 10]
Which record shows the lower inhibition at 10 µM: the first, P , or the second, Q ? Your choice should be expressed through its label. Q
